- assay-details: Metabolic stability, human liver microsomes
- Assay type: in vitro ADME
- reported-conditions: human liver microsomes (male) 1 mg/ml, 1 mM NADPH, pH 7.4, 37° C.
Consider the following compounds and their measured human liver microsome t0.5 readings.
measurement-name: human liver microsome t0.5

compound="CCCC/C(C)=C/C=C(\\C)C(=O)c1c(O)cc(C(C)CC/C=C/NC(=O)OC)oc1=O (racemic) [Example 10, (±)Myxopyronin B, reference compound]" value_measured="1.7 min"
compound="[2H]C([2H])([2H])OC(=O)N/C=C/CCC(C)c1cc(O)c(C(=O)/C(C)=C/C=C(\\C)CCCC)c(=O)o1 (stereo not drawn)" value_measured="4.2 min"
compound=[2H]C([2H])([2H])OC(=O)N/C=C/CCCc1cc(O)c(C(=O)/C(C)=C/c2cnc(Oc3ccc(F)c(Cl)c3)s2)c(=O)o1 value_measured="21 min"
compound="[2H]C([2H])([2H])OC(=O)N/C=C/CCC(C)c1cc(O)c(C(=O)/C(C)=C/c2cnc(Oc3ccc(F)cc3)s2)c(=O)o1 (stereo not drawn)" value_measured="21 min"
compound="COC(=O)N/C=C/CCC(C)c1cc(O)c(C(=O)/C(C)=C/C=C(\\C)CCC(F)(F)F)c(=O)o1 (stereo not drawn) [Example 11, reference compound]" value_measured="25 min"
compound=[2H]C([2H])([2H])OC(=O)N/C=C/CCCc1cc(O)c(C(=O)/C(C)=C/c2cnc(Oc3ccc(F)cc3)s2)c(=O)o1 value_measured="21 min"

====

- assay-details: In vivo pharmacokinetics in mice (intravenous administration)
- reported-conditions: CD-1 mice, 2.5 mg/kg
measurement-name: plasma t0.5 (h)

compound="[2H]C([2H])([2H])OC(=O)N/C=C/CCCc1cc(O)c(C(=O)/C(C)=C/c2cnc(Oc3ccc(F)cc3)s2)c(=O)o1 [Example 8]" unit_abbrev=h value_measured=2.7
compound="COC(=O)N/C=C/CCCc1cc(O)c(C(=O)/C(C)=C/c2cnc(Oc3ccc(F)cc3)s2)c(=O)o1 [Example 6]" unit_abbrev=h value_measured=2.4
compound="[2H]C([2H])([2H])OC(=O)N/C=C/CCC(C)c1cc(O)c(C(=O)/C(C)=C/c2sc(Oc3ccc(F)cc3)nc2C)c(=O)o1 (stereo not shown) [Example 4]" unit_abbrev=h value_measured=2.7
compound="COC(=O)N/C=C/CCC(C)c1cc(O)c(C(=O)/C(C)=C/c2cnc(Oc3ccc(F)cc3)s2)c(=O)o1 (stereo not shown) [Example 2]" unit_abbrev=h value_measured=2.8

====

- assay-details: Metabolic stability, human liver microsomes
- Assay type: in vitro ADME
- reported-conditions: human liver microsomes (male) 1 mg/ml, 1 mM NADPH, pH 7.4, 37° C.
measurement-name: human liver microsome t0.5 (min)

compound="[2H]C([2H])([2H])OC(=O)N/C=C/CCCc1cc(O)c(C(=O)/C(C)=C/c2cnc(Oc3ccc(-c4ccccc4)cc3)s2)c(=O)o1 [Example 16]" unit_abbrev=min value_measured=44
compound="[2H]C([2H])([2H])OC(=O)N/C=C/CCC(C)c1cc(O)c(C(=O)/C(C)=C/C=C(\\C)CCC(F)(F)F)c(=O)o1 (stereo not drawn) [Example 13]" unit_abbrev=min value_measured=33
compound="COC(=O)N/C=C/CCCc1cc(O)c(C(=O)/C(C)=C/c2cnc(Oc3ccc(F)cc3)s2)c(=O)o1 [Example 6]" unit_abbrev=min value_measured=8.6
compound="[2H]C([2H])([2H])OC(=O)N/C=C/CCCc1cc(O)c(C(=O)/C(C)=C/c2sc(Oc3ccc(F)cc3)nc2C)c(=O)o1 [Example 7]" unit_abbrev=min value_measured=8.3
compound="COC(=O)N/C=C/CCC(C)c1cc(O)c(C(=O)/C(C)=C/c2sc(Oc3ccc(F)cc3)nc2C)c(=O)o1 (stereo not drawn) [Example 1]" unit_abbrev=min value_measured=8.3
compound="COC(=O)N/C=C/CCC(C)c1cc(O)c(C(=O)/C(C)=C/c2cnc(Oc3ccc(F)cc3)s2)c(=O)o1 (stereo not drawn) [Example 2]" unit_abbrev=min value_measured=14
